Collected kon values appear next to each entry.
Molecular target: PD-L1 ligand (analyte of the Octet affinity measurement) (UniProt Q9NZQ7 19-238, limits assumed)
Sequence (Q9NZQ7 19-238 limits assumed): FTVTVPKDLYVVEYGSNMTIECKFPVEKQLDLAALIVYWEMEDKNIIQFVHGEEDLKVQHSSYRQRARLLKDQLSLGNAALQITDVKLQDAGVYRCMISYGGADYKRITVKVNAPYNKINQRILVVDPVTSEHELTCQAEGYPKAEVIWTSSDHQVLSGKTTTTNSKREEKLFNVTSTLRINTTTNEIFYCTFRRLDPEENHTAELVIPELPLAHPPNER
Assay: BLI (Octet RED 96), antibody captured on anti-human IgG sensor, PD-L1 in solution, 1:1 fit
Procedure: Affinity Measurement: The affinity measurement was conducted with Octet RED 96 (ForteBio) instrument at 30 degree Celsius. […]
attribute.measured: kon (M⁻¹ s⁻¹)

binder	attribute.measured	recorded.number
chimeric anti-PD-L1 antibody 115E2 (antibody, V domains shown) VH: CQSVKESEGGLFKPMDTLTLTCTVSGIDLGSVAISWVRQAPGKGLEWIGTIGSSGSAYYASWAKSRSTITRNTNLNTVTLKMTSLTAADTASYFCAKEILYYGMDRWGPGTLVTVSS VL: DVVMTQTPASVEASVGGTVTINCQASQSISSYLAWYQQKPGQPPKLLIYAASNLEPGVPSRFKGSGSGTEFTLTISDLECADAATYYCQATYGSTSSSDYGNAFGGGTKVVVVR	kon	532000
chimeric anti-PD-L1 antibody 116F3 (antibody, V domains shown) VH: CQSVKESEGGLFKPTDTLTLTCTVSGIDLSSISIGWVRQAPGNGLEWIGTISDSGSAYYASWAKSRSTITRNTNENTVTLKMTSLTAADTASYFCAKEILYYGMDLWGPGTLVTVSS VL: DVVMTQTPASVSGAVGGTVTIKCQASEDIESYLAWYQQKPGQPPKLLIYAASNLEPGVPSRFKGSRSGTEYTLTITDLECDDAATYHCQATYGSTSSSDYGNAFGGGTKVVVVR	kon	682000
chimeric anti-PD-L1 antibody 110B4 (antibody, V domains shown) VH: CQSVKESEGGLFKPTDTLTLTCKVSGIDLSSISISWVRQAPGNGLEWIGVINSYGNTYYASWAKSRSTITRNTNENTVTLKMTSLTAADTATYFCAKEILYYGMDLWGPGTLVTVSS VL: DVVMTQTPASVEAAVGGTVTIKCQASQSISSYFSWYQQKPGQRPKLLIYDASNLESGVPSRFKGSRSGTEYTLTISDLEWDDAATYYCQCTYGSTSSSNYGNNFGGGTKVVVVR	kon	404000
chimeric anti-PD-L1 antibody 110H8 (antibody, V domains shown) VH: CQSVKESEGGLFKPTDTLTLTCTVSGIDLSSVSISWVRQAPGNGLEWIGTIGASGSAYYASWAKRRSTITRNTNLNTVTLKMTSLTAADTASYFCAKEILYYGMDLWGPGTLVTVSS VL: DVVMTQTPASVEAAVGGTVTIKCQASQSISNYLAWYQQKPGQRPKLLIYAASNLEPGVPSRFKGSGSGTEYTLTITDLECDDAATYHCQCTYGSTSSSDYGNAFGGGTKVVVVR	kon	755000
chimeric anti-PD-L1 antibody 115C1 (antibody, V domains shown) VH: CQSVKESEGGLFKPTDTLTLTCTVSGFSLSSVAVSWVRQAPGKGLEWIGTISYTGNTYYASWAKSRSTITRNTNENTVTLKMPSLTVADTATYFCAKEILYYGMDFWGPGTLVTVSS VL: DIVMTQTPSSVSAAVGGTVTINCQASQSISSYLAWYQQKPGQPPKLLIYGASNLESGVPSRFKGSGSGTDFTLTISDLECADAATYYCQSTYGSTSTSDYGNAFGGGTKVVVVR	kon	455000
chimeric anti-PD-L1 antibody 113F1 (antibody, V domains shown) VH: CQSVKESEGGLFKPTDTLTLTCTVSGIDLSSIAISWVRQAPGNGLEWIGTINSYGSTYYASWAQSRSTITRNTNENTVTLKMTSLTAADTASYFCAKEILYYGMDVWGPGTLVTVSS VL: DVVMTQTPASVEAAVGGTVTIKCQASQSISSYLAWYQQKPGQPPKLLIYAASNLESGVPSRFKGSGSGTEYTLTISDLECDDAATYYCQSTYGTTSTSDYGNAFGGGTKVVVVR	kon	362000
chimeric anti-PD-L1 antibody 111H2 (antibody, V domains shown, also called chimeric anti-PD-L1 111H2 antibody) VH: QEQLVESGGGLVQPGGTLKLSCKGSGFDLSSNAMCWVRQAPGKGLEWIGCIVYGNCYYASWVNGRFTISSDNAQSSVDLQLNSLTAADTATYFCARDPAGSSVYTGGFNIWGPGTLVTVSS VL: AIDMTQTPSPVSAAVGDTVTINCQASENIYSFLAWYQQKPGHSPKPLIYFASKLASGVPSRFKGSGSGTQFTLTISDVQCDDAATYYCQQTVSYKNADTAFGGGTKVVVVR	kon	1.07e+06
